Where these numbers come from: a melting point compilation (Tetko et al.; mined from patent text by program, amines drawn as free bases though some values may be those of a salt)

Reported melting point is given for each of the following molecules.
metric: melting point

# molecule, metric, result
records = [
    ("O=C(c1cc(C(F)(F)F)cc(C(F)(F)F)c1)N1CCC2(CC1)C(=O)NCN2c1ccc(Cl)cc1", "melting point", "233 to 235 °C"),
    ("Cc1cc(C(=O)c2cccc(Br)c2)c(O)cc1Cl", "melting point", "115 to 117 °C"),
    ("CCCNc1nc(N)nc2c1ncn2C1C=CC(CO)C1 (stereo not given)", "melting point", "138 to 140 °C"),
    ("Cc1cc(Cc2ccc(NC(=O)NCCO)cc2)n(C)c1C(=O)c1ccc(Cl)cc1", "melting point", "210 °C"),
    ("COCCCS(=O)(=O)NC(=O)/C=C/c1ccc(OC(C)C)cc1Oc1ncc(C(F)(F)F)cc1Cl", "melting point", "130 °C"),
    ("N#CC=C1CCN(c2ccc(N3C[C@H](CNC(=O)C(Cl)Cl)OC3=O)cc2F)CC1", "melting point", "159 to 161 °C"),
    ("O=C(O)C(Cc1c[nH]cn1)N1C(=O)c2ccccc2C1=O (stereo not given)", "melting point", "280 to 285 °C"),
    ("CC(C)c1nnc2c3ccc(Cl)cc3c(-c3ccccc3)nn12", "melting point", "214 to 216 °C"),
    ("CCCCSc1cc(C(=O)O)cc([N+](=O)[O-])c1-c1ccccc1", "melting point", "147 to 148 °C"),
    ("Cc1cccc(Oc2ccc3ccc(N)nc3n2)c1", "melting point", "100 °C"),
]
